Origin of values: ChEMBL document CHEMBL3817829

Biological target: Mycocyclosin synthase (Mycobacterium tuberculosis, UniProt P9WPP7)
Sequence (P9WPP7 whole entry): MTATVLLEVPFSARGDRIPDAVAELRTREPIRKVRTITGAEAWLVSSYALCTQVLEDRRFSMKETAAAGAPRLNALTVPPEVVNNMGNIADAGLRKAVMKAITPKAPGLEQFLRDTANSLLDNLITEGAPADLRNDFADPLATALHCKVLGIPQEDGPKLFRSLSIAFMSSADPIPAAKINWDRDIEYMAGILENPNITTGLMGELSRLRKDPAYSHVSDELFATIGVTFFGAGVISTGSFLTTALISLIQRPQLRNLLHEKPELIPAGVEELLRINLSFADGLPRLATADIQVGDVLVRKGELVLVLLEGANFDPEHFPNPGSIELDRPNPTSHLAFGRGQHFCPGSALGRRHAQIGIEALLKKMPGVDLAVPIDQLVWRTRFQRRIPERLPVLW
Assay: Binding affinity to Mycobacterium tuberculosis recombinant His6-tagged CYP121 expressed in Escherichia coli C41(DE3) cells by isothermal titration calorimetry
measuredQuantity: pKd
pKd here is simply -log10 of the concentration when that concentration is written in mol/L.

q: Record request: pKd value, item Nc1ccc2nccc(-n3cncn3)c2c1
a: 4.55

====

Biological target: Mycocyclosin synthase (Mycobacterium tuberculosis, UniProt P9WPP7)
Test: Binding affinity to Mycobacterium tuberculosis recombinant His6-tagged CYP121 expressed in Escherichia coli C41(DE3) cells assessed as change in wavelength of heme soret band at 1 mM by UV-visible spectrophotometric method
Conditions: 1000 µM
The entries below are paired with their reported Activity.
Give the number; nm is assumed, so skip it.

CCOC(=O)/C=C1/C(=O)Oc2ccccc21; -1

q: Record request: Activity value, item CCOC(=O)[C@H]1[C@@H]2C=C[C@@H](C2)[C@]12C(=O)Nc1ccc(Cl)cc12
a: -1

q: Record request: Activity value, item N#C/C=C1/C(=O)Nc2ccccc21
a: 0

====

Biological target: Mycocyclosin synthase (Mycobacterium tuberculosis)
Assay: Binding affinity to Mycobacterium tuberculosis recombinant His6-tagged CYP121 expressed in Escherichia coli C41(DE3) cells assessed as change in wavelength of heme soret band at 1 mM by UV-visible spectrophotometric method
Conditions: 1000 µM
The entries below are paired with their reported Activity.
Give the number; nm is assumed, so skip it.

N#CC1[C@@H]2C=C[C@@H](C2)C12C(=O)Nc1ccccc12 (mixture of isomers); 0
Nc1ccc2nccc(-n3cncn3)c2c1; 3
CCOC(=O)CC1C(=O)Oc2ccccc21 (stereo unspecified); 0
CN1C(=O)/C(=C/C#N)c2ccccc21; 0
CN1C(=O)C(CC#N)c2ccccc21 (stereo unspecified); 0
N#C[C@@H]1[C@@H]2C=C[C@@H](C2)[C@@]12C(=O)Nc1ccccc12; 0
CCOC(=O)[C@@H]1[C@@H]2C=C[C@@H](C2)[C@@]12C(=O)Nc1ccc(F)cc12; 0
N#CCC1C(=O)Nc2ccccc21 (stereo unspecified); 0
CCOC(=O)[C@@H]1[C@@H]2C=C[C@@H](C2)[C@@]12C(=O)Nc1ccc(Cl)cc12; 0
CCOC(=O)/C=C1/C(=O)Nc2ccc(F)cc21; 0

q: Record request: Activity value, item CCOC(=O)CC1C(=O)Nc2ccc(F)cc21 (stereo unspecified)
a: 0

q: Record request: Activity value, item N#C/C=C1/C(=O)Nc2ccc(OC(F)(F)F)cc21
a: 0
